Target: UniProt:P01116
Sequence (P01116 whole entry): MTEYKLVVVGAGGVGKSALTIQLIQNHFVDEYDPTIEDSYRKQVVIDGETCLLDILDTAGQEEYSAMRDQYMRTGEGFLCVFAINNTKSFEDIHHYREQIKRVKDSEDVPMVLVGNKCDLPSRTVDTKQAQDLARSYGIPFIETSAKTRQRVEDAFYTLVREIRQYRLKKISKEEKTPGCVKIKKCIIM
Test: Binding to KRAS by surface plasmon resonance (SPR), Single Cycle Kinetics
Conditions: SPR, Single Cycle Kinetics, GDP-bound KRAS wild-type protein; read-out: KRAS KD
Reported Kd is given for each of the following molecules.
Please give a number only; it is taken to be in nM.

Check out these entries, answers already filled in.
[[record]]
smiles_representation = "CCCO[C@H](C)[C@@H]1NC(=O)[C@H](COCC)N(C)C(=O)C[C@@H](C(=O)N(C)CC)N(C)C(=O)[C@H](C2CCCC2)N(C)C(=O)C2(CC(C)(C)C2)NC(=O)[C@@H]2C[C@H](C)CN2C(=O)[C@H](CCc2ccc(C(F)(F)F)c(OC)c2)NC(=O)CN(C)C(=O)[C@H](Cc2ccc(C)cc2)N2CC/C=C\\C[C@@H](C2=O)N(C)C(=O)CN(C)C1=O"
assayed_target = "UniProt:P01116"
experimental_endpoint = "Kd"
uom = "nM"
meas_value = 0.23

[[record]]
smiles_representation = "CCO[C@@H]1C[C@H]2C(=O)NC3(CC(C)(C)C3)C(=O)N(C)[C@@H](C3CCCC3)C(=O)N(C)[C@H](C(=O)N3CCCC3)CC(=O)N(C)[C@H]3CCCCCCc4ccc(cc4)C[C@@H](C(=O)N(C)CC(=O)N[C@@H](CCc4ccc(C(F)(F)F)c(OC)c4)C(=O)N2C1)N1CC/C=C\\C[C@@H](C1=O)N(C)C(=O)CN(C)C(=O)[C@H]([C@@H](C)CC)NC3=O"
assayed_target = "UniProt:P01116"
experimental_endpoint = "Kd"
uom = "nM"
meas_value = 0.11


# evaluate next
Note Kd for the molecule shown: "CCO[C@@H]1C[C@H]2C(=O)NC3(CCC3)C(=O)N(C)[C@@H](C3CCCC3)C(=O)N(C)[C@H](C(=O)N3CCOCC3)CC(=O)N(C)[C@@H](CC(C)C)C(=O)N[C@@H]([C@@H](C)CC)C(=O)N(C)CC(=O)N(C)[C@H]3CC=CCN(C3=O)[C@@H](Cc3ccc(C(F)(F)F)cc3)C(=O)N(C)CC(=O)N[C@@H](CCc3cc(F)c(C(F)(F)F)c(F)c3)C(=O)N2C1"
0.21
